- Test system: α-isomaltosylglucosaccharide-forming enzyme
- Protocol details: Influence of metal ions on α-isomaltosylglucosaccharide-forming enzyme activity (C11 strain)
- Format: biochemical, Bacillus globisporus C11 strain
- Measurement setup: in the presence of 1 mM of each metal-ion; None = 100
Relative activity (%) values by entry

Substance smiles: [Cu+2]
Unit annotation: %
Relative activity (%): 23

Substance smiles: [Ba+2]
Unit annotation: %
Relative activity (%): 65

Substance smiles: [Hg+2]
Unit annotation: %
Relative activity (%): 4

Substance smiles: O=C(O)CN(CCN(CC(=O)O)CC(=O)O)CC(=O)O
Unit annotation: %
Relative activity (%): 24

Substance smiles: [Mn+2]
Unit annotation: %
Relative activity (%): 142

Substance smiles: [Ca+2]
Unit annotation: %
Relative activity (%): 109

Substance smiles: [Zn+2]
Unit annotation: %
Relative activity (%): 91

Substance smiles: [Sr+2]
Unit annotation: %
Relative activity (%): 83

Substance smiles: [Co+2]
Unit annotation: %
Relative activity (%): 96

Substance smiles: [Pb+2]
Unit annotation: %
Relative activity (%): 101

====

Relative activity (%) values by entry
- Tested on: α-isomaltosyl-transferring enzyme
- Protocol details: Influence of metal ions on α-isomaltosyl-transferring enzyme activity (C9 strain)
- Type: biochemical, Bacillus globisporus C9 strain
- Measurement setup: in the presence of 1 mM of each metal-ion; None = 100

Compound: [Hg+2] [Hg^2+]
Measured on: α-isomaltosyl-transferring enzyme
Relative activity (%): 1

Compound: [Mn+2] [Mn^2+]
Measured on: α-isomaltosyl-transferring enzyme
Relative activity (%): 106

Compound: O=C(O)CN(CCN(CC(=O)O)CC(=O)O)CC(=O)O [EDTA, ethylenediaminetetraacetic acid]
Measured on: α-isomaltosyl-transferring enzyme
Relative activity (%): 104

Compound: [Ca+2] [Ca^2+]
Measured on: α-isomaltosyl-transferring enzyme
Relative activity (%): 101

Compound: [Pb+2] [Pb^2+]
Measured on: α-isomaltosyl-transferring enzyme
Relative activity (%): 89

Compound: [Al+3] [Al^3+]
Measured on: α-isomaltosyl-transferring enzyme
Relative activity (%): 103

Compound: [Sr+2] [Sr^2+]
Measured on: α-isomaltosyl-transferring enzyme
Relative activity (%): 101

====

Relative activity (%) values by entry
- Test system: α-isomaltosyl-transferring enzyme
- Protocol details: Influence of metal ions on α-isomaltosyl-transferring enzyme activity (C11 strain)
- Type: biochemical, Bacillus globisporus C11 strain
- Measurement setup: in the presence of 1 mM of each metal-ion; None = 100

Substance smiles: [Al+3]
Relative activity (%): 89

Substance smiles: [Ni+2]
Relative activity (%): 89

Substance smiles: [Ba+2]
Relative activity (%): 90

Substance smiles: [Ca+2]
Relative activity (%): 91

Substance smiles: [Co+2]
Relative activity (%): 89

====

- System: α-isomaltosyl-transferring enzyme
- Protocol details: Influence of metal ions on α-isomaltosyl-transferring enzyme activity (N75 strain)
- Type: biochemical, Bacillus globisporus N75 strain
- Measurement setup: in the presence of 1 mM of each metal-ion; None = 100
Relative activity (%) values by entry

Substance smiles: [Co+2]
Unit annotation: %
Relative activity (%): 92

Substance smiles: O=C(O)CN(CCN(CC(=O)O)CC(=O)O)CC(=O)O
Unit annotation: %
Relative activity (%): 92

Substance smiles: [Ni+2]
Unit annotation: %
Relative activity (%): 91

Substance smiles: [Sr+2]
Unit annotation: %
Relative activity (%): 91
